// data source = ChEMBL document CHEMBL4257444

Quick record: pIC50, Acetylcholinesterase (Electrophorus electricus, UniProt O42275).
Please express pIC50 as -log10 of the molar concentration.

A selection of reference data follows.
# Record Smiles, Observed Property, Reading
data = [
    ("CC(C)(CN1C(=O)c2cccc3cccc(c23)C1=O)C[N+](C)(C)CCCCCCC[N+](C)(C)CC#CCOC1=NOCC1", "pIC50", 6.04),
    ("C[N+](C)(CC#CCOC1=NOCC1)CCCCCCCCC[N+](C)(C)CCCN1C(=O)c2ccccc2C1=O", "pIC50", 4.80),
]

Now examine the next entry.
Exercise: Record lookup: for Acetylcholinesterase (Electrophorus electricus, UniProt O42275), what pIC50 belongs to C[N+](C)(CC#CCOC1=NOCC1)CCCCCCCCCC[N+](C)(C)CCCN1C(=O)c2ccccc2C1=O ?
Key: 5.26

----------
Each entry below carries its measured pIC50, system: Acetylcholinesterase (Electrophorus electricus, UniProt O42275).
Sequence (O42275 whole entry): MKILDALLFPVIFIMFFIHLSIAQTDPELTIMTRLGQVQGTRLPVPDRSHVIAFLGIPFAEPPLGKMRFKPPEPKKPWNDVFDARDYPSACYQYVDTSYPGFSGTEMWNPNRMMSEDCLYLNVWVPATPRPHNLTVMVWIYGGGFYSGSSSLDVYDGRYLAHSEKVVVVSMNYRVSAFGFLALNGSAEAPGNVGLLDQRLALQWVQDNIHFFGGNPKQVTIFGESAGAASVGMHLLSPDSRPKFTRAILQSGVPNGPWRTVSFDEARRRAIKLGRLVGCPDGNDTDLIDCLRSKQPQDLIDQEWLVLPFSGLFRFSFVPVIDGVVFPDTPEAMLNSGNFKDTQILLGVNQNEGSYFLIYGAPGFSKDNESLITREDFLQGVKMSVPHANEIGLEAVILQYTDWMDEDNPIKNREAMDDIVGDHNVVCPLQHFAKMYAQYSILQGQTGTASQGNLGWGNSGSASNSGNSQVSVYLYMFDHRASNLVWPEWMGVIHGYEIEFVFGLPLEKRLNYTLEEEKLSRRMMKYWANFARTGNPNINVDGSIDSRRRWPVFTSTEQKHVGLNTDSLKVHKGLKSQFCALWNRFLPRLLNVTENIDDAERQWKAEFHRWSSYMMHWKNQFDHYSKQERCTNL
Just the number, please; pIC50 means minus log10 of the concentration in mol/L.

These solved cases illustrate the format of a correct answer.
# Record Smiles, Test System, Reading
rows = [
    ("C[N+](C)(CC#CCOC1=NOCC1)CCCCCCCCCCNc1c2c(nc3ccccc13)CCCC2", "Acetylcholinesterase (Electrophorus electricus, UniProt O42275)", 9.81),
    ("C[N+](C)(CC#CCOC1=NOCC1)CCCCCCCNc1c2c(nc3ccccc13)CCCC2", "Acetylcholinesterase (Electrophorus electricus, UniProt O42275)", 8.76),
    ("CC(C)(CN1C(=O)c2cccc3cccc(c23)C1=O)C[N+](C)(C)CCCCCCCC[N+](C)(C)CC#CCOC1=NOCC1", "Acetylcholinesterase (Electrophorus electricus, UniProt O42275)", 6.10),
    ("C[N+](C)(CC#CCOC1=NOCC1)CCCCCCCC[N+](C)(C)CCCN1C(=O)c2ccccc2C1=O", "Acetylcholinesterase (Electrophorus electricus, UniProt O42275)", 4.89),
]

// next item, pIC50 requested
Exercise: Acetylcholinesterase (Electrophorus electricus, UniProt O42275) / pIC50 / C[N+](C)(CC#CCOC1=NOCC1)CCCCCCC[N+](C)(C)CCCN1C(=O)c2ccccc2C1=O : value?
Key: 4.83

----------
This document collects log10 IC50 values reported for Acetylcholinesterase (Electrophorus electricus).
// units: nM (pre-log); metric: IC50; scale: log10

# Molecule, Observed Property, Reading
data = [
    ("CC(C)(CN1C(=O)c2cccc3cccc(c23)C1=O)C[N+](C)(C)CCCCCCCCCC[N+](C)(C)CC#CCOC1=NOCC1", "log10 IC50", 2.50),
]

Exercise: So what log10 IC50 did C[N+](C)(CC#CCOC1=NOCC1)CCCCCC[N+]1(C)CCC(N2C(=O)c3ccccc3C2=O)CC1 (centres undefined) get with Acetylcholinesterase (Electrophorus electricus)?
Key: 3.38

Exercise: Given the entry C[N+](C)(CC#CCOC1=NOCC1)CCCCCC[N+]1(C)CCC(N2C(=O)c3cccc4cccc(c34)C2=O)CC1 (centres undefined) , what log10 IC50 was observed with Acetylcholinesterase (Electrophorus electricus)?
Key: 3.02

----------
# Test System: Cholinesterase (Homo sapiens, UniProt P06276)
# Sequence (P06276 whole entry): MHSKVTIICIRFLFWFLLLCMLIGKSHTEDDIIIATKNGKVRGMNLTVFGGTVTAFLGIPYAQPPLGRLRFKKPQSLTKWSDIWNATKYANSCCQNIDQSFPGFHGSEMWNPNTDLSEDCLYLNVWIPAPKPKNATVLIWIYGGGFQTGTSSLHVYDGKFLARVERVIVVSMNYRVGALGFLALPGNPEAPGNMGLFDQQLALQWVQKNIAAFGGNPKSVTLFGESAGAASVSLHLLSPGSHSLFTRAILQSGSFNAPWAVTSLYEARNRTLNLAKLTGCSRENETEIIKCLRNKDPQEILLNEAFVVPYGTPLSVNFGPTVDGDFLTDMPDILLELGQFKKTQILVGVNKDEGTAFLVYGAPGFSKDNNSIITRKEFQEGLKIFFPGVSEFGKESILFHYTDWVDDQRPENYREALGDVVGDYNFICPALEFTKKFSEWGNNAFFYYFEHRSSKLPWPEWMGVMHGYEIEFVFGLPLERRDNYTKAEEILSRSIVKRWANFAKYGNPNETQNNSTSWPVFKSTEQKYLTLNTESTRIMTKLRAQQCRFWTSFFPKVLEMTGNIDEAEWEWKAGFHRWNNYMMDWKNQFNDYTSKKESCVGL
# Assay Method Text: Inhibition of human serum BChE using butyrylthiocholine iodide as substrate pretreated for 4.5 mins followed by substrate addition and measured after 2.5 mins by Ellman's method
Observed Property: IC50 (nM)
// return numeric value only (unit: nM, not printed)

# Record Smiles, IC50 [nM]
data = [
    ("C[N+](C)(CC#CCOC1=NOCC1)CCCCCCCCCC[N+](C)(C)CCCN1C(=O)c2ccccc2C1=O", 1950),
]

Exercise: API: value(readout=IC50, system=Cholinesterase (Homo sapiens, UniProt P06276)) for record C[N+](C)(CC#CCOC1=NOCC1)CCCCCCCNc1c2c(nc3ccccc13)CCCC2
Key: 4.57

Exercise: Entry CC(C)(CN1C(=O)c2cccc3cccc(c23)C1=O)C[N+](C)(C)CCCCCCCCCC[N+](C)(C)CC#CCOC1=NOCC1 , system Cholinesterase (Homo sapiens, UniProt P06276): what IC50 was measured?
Key: 263

Exercise: Form field: IC50 recorded for C[N+](C)(CC#CCOC1=NOCC1)CCCCCCCCCCNc1c2c(nc3ccccc13)CCCC2 with Cholinesterase (Homo sapiens, UniProt P06276) (enter value)
Key: 1.82

----------
Listed below: logP values for each entry.
# Assay Method Text: physchem
# Conditions: octanol/water
# Description: Octanol/water partition co-efficient, log P of the compound by RP-HPLC analysis
Lab note: record just the number, no unit beside it.

# Compound, logP
records = [
    ("C[N+](C)(CC#CCOC1=NOCC1)CCCCCCCCCC[N+](C)(C)CCCN1C(=O)c2ccccc2C1=O", 0.8),
    ("CC(C)(CN1C(=O)c2cccc3cccc(c23)C1=O)C[N+](C)(C)CCCCCCC[N+](C)(C)CC#CCOC1=NOCC1", 1.7),
    ("CC(C)(CN1C(=O)c2cccc3cccc(c23)C1=O)C[N+](C)(C)CCCCCCCCCC[N+](C)(C)CC#CCOC1=NOCC1", 1.77),
]

Let's switch to this compound now.
Exercise: Tell me the measured logP of C[N+](C)(CC#CCOC1=NOCC1)CCCCCC[N+]1(C)CCC(N2C(=O)c3ccccc3C2=O)CC1 (centres undefined) , please.
Key: 0.84

----------
# Assay Method Text: physchem
# Conditions: octanol/water
Item-by-item account of logP
// print number alone

Known logP results, listed for orientation:
# Compound, Observed Property, Reading
data = [
    ("C[N+](C)(CC#CCOc1ccon1)CCCC[N+](C)(C)CCCN1C(=O)c2ccccc2C1=O", "logP", 1.55),
    ("C[N+](C)(CC#CCOC1=NOCC1)CCCCCCCCC[N+](C)(C)CCCN1C(=O)c2ccccc2C1=O", "logP", 0.79),
    ("C[N+](C)(CC#CCOC1=NOCC1)CCCCCCCCCCNc1c2c(nc3ccccc13)CCCC2", "logP", 3.28),
]

Exercise: # logP lookup, item CC(C)(CN1C(=O)c2cccc3cccc(c23)C1=O)C[N+](C)(C)CCCCCCCC[N+](C)(C)CC#CCOC1=NOCC1
Key: 1.61

Exercise: Data request, read-out logP, for CC(C)(CN1C(=O)c2cccc3cccc(c23)C1=O)C[N+](C)(C)CCCCCCCCC[N+](C)(C)CC#CCOC1=NOCC1
Key: 1.69

Exercise: Report logP for C[N+](C)(CC#CCOC1=NOCC1)CCCCCCC[N+](C)(C)CCCN1C(=O)c2ccccc2C1=O please.
Key: 0.79

Exercise: Requested field: logP. Item: C[N+](C)(CC#CCOC1=NOCC1)CCCCCCCNc1c2c(nc3ccccc13)CCCC2
Key: 2.05

Exercise: Consider the compound C[N+](C)(CC#CCOc1ccon1)CCCCCC[N+](C)(C)CCCN1C(=O)c2ccccc2C1=O and give its measured logP.
Key: 0.99

Exercise: # query: logP of entry C[N+](C)(CC#CCOC1=NOCC1)CCCCCC[N+]1(C)CCC(N2C(=O)c3cccc4cccc(c34)C2=O)CC1 (stereo unspecified)
Key: 1.54

Exercise: Can you look up the measured logP of C[N+](C)(CC#CCOc1ccon1)CCCCCCCC[N+](C)(C)CCCN1C(=O)c2ccccc2C1=O for me?
Key: 0.83

Exercise: logP for C[N+](C)(CC#CCOC1=NOCC1)CCCCCCCC[N+](C)(C)CCCN1C(=O)c2ccccc2C1=O ?
Key: 0.78

----------
# Test System: Acetylcholinesterase (Homo sapiens)
# Sequence (P22303 whole entry): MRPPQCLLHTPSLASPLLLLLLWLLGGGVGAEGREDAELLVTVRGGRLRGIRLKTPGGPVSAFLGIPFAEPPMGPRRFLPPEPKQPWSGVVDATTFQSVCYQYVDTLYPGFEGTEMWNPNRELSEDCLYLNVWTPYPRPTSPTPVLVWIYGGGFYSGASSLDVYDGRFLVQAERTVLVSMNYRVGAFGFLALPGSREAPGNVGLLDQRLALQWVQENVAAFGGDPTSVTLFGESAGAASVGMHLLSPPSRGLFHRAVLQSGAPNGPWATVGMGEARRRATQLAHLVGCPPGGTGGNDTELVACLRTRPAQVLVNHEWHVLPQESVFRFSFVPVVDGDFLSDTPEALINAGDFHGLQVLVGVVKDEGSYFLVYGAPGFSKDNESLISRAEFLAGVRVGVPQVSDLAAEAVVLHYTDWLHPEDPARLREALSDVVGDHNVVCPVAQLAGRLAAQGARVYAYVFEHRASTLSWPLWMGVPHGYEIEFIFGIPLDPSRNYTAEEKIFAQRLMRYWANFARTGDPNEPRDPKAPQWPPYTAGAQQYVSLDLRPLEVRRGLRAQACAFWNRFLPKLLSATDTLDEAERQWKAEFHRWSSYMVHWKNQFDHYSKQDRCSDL
# Assay Method Text: Inhibition of recombinant human AChE expressed in HEK293 cells using acetylthiocholine iodide as substrate pretreated for 4.5 mins followed by substrate addition and measured after 2.5 mins by Ellman's method
Observed Property: IC50 (nM)
Kindly provide the numeric value in nM only, without the unit symbol.

Example results:
# Record Smiles, Value Units, IC50
measured = [
    ("C[N+](C)(CC#CCOC1=NOCC1)CCCCCCCNc1c2c(nc3ccccc13)CCCC2", "nM", 2),
    ("CC(C)(CN1C(=O)c2cccc3cccc(c23)C1=O)C[N+](C)(C)CCCCCCCCCC[N+](C)(C)CC#CCOC1=NOCC1", "nM", 1070),
]

Exercise: Sample C[N+](C)(CC#CCOC1=NOCC1)CCCCCCCCCC[N+](C)(C)CCCN1C(=O)c2ccccc2C1=O — what was its IC50?
Key: 13200

Exercise: Dear colleague, I am looking for the recorded IC50 of the following compound: C[N+](C)(CC#CCOC1=NOCC1)CCCCCCCCCCNc1c2c(nc3ccccc13)CCCC2
Key: 1.78

----------
# Test System: Cholinesterase (Equus caballus)
# Sequence (P81908 whole entry): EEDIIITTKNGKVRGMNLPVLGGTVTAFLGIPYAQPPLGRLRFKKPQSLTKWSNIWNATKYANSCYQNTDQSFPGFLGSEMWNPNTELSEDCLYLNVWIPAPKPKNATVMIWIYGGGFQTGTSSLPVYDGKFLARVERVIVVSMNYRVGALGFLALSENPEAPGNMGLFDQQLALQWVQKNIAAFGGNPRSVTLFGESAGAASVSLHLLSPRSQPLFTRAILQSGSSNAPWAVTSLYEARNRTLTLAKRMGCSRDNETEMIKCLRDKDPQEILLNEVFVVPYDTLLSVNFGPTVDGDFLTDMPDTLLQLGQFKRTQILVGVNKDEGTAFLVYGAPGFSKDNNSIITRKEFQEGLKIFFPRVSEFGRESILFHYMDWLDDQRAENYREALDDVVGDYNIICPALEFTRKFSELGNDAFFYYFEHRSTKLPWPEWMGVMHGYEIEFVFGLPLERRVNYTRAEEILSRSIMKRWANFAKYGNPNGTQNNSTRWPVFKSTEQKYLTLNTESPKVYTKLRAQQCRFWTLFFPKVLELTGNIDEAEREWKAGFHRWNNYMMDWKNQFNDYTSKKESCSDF
The reader will find reported pIC50 values listed item by item below.
Would you please state pIC50, meaning minus log10 of the concentration in mol/L, as a bare number?

Take a look at these entries with their results.
# Compound, pIC50
rows = [
    ("BrCCCCCCCCCCNc1c2c(nc3ccccc13)CCCC2", 8.06),
    ("CC(C)(CN1C(=O)c2cccc3cccc(c23)C1=O)C[N+](C)(C)CCCCCCCC[N+](C)(C)CC#CCOC1=NOCC1", 6.46),
    ("C[N+](C)(CC#CCOC1=NOCC1)CCCCCC[N+]1(C)CCC(N2C(=O)c3ccccc3C2=O)CC1 (centres undefined)", 4.97),
    ("C[N+](C)(CC#CCOC1=NOCC1)CCCCCCCCCC[N+](C)(C)CCCN1C(=O)c2ccccc2C1=O", 5.37),
    ("C[N+](C)(CC#CCOC1=NOCC1)CCCCCCCCC[N+](C)(C)CCCN1C(=O)c2ccccc2C1=O", 4.88),
]

Exercise: Return pIC50 measured with Cholinesterase (Equus caballus) given this compound: C[N+](C)(CC#CCOC1=NOCC1)CCCCCC[N+]1(C)CCC(N2C(=O)c3cccc4cccc(c34)C2=O)CC1 (centres undefined)
Key: 6.07

Exercise: Value wanted: pIC50 (Cholinesterase (Equus caballus)) of entry C[N+](C)(CC#CCOC1=NOCC1)CCCCCCCC[N+](C)(C)CCCN1C(=O)c2ccccc2C1=O
Key: 5.13

Exercise: # get_value(readout= pIC50, system= Cholinesterase (Equus caballus)) for CC(C)(CN1C(=O)c2cccc3cccc(c23)C1=O)C[N+](C)(C)CCCCCCCCCC[N+](C)(C)CC#CCOC1=NOCC1
Key: 6.99

Exercise: Return pIC50 measured with Cholinesterase (Equus caballus) given this compound: C[N+](C)(CC#CCOC1=NOCC1)CCCCCCCNc1c2c(nc3ccccc13)CCCC2
Key: 8.29

Exercise: So what pIC50 did C[N+](C)(CC#CCOC1=NOCC1)CCCCCCC[N+](C)(C)CCCN1C(=O)c2ccccc2C1=O get with Cholinesterase (Equus caballus)?
Key: 5.19

Exercise: Item C[N+](C)(CC#CCOc1ccon1)CCCCCC[N+](C)(C)CCCN1C(=O)c2ccccc2C1=O with Cholinesterase (Equus caballus) - pIC50?
Key: 4.41
